# METHOD SUMMARY: AUC in C57BL/6 mouse plasma at 20 mg/kg, iv measured from 5 mins to 24 hrs by HPLC analysis
# Type: ADME, organism-based
# Set-up: dose 20 mg/kg, time upper 24 hr, time lower 0.083 hr, route intravenous
PROPERTY MEASURED: AUC (µg·h/mL)
Value expressed in µg·h/mL; do not type the unit.

Challenge: Could you share which AUC value was measured for `Cc1cc(Nc2nn(C3CC3)c3cnc(S(=O)(=O)N4CCC(O)CC4)cc23)ccc1F` ?
Response given: 2.6

###

# METHOD SUMMARY: Selectivity index, ratio of CC50 for cytotoxicity in human HepAD38 cells assessed as induction of cell killing to EC50 for antiviral activity against HBV infected in human HepAD38 cells assessed as reduction in viral DNA levels incubated for 6 days by PCR analysis
# Format: toxicity, cell-based
# CONDITION: read-out: Ratio CC50/EC50
PROPERTY MEASURED: selectivity ratio at 144 h

>>> print(df.to_string())
                        structure_as_smiles  readout_value
0  O=S(=O)(c1cc2c(Nc3cc(F)c(F)c(F)c3)nn(C3CC3)c2cc1F)N1CCC(O)CC1          > 769
1  O=S(=O)(c1cc2c(Nc3cc(F)c(F)c(F)c3)nn(C3CC3)c2cn1)N1CCC(O)CC1          > 417
2  O=S(=O)(c1ccc2c(c1)c(Nc1ccc(F)cc1)nn2C1CC1)N1CCC(O)CC1          > 455
3  O=S(=O)(c1ccc2c(c1)c(Nc1ccc(Cl)cc1)nn2C1CC1)N1CCC(O)CC1            2.2
4  O=S(=O)(c1ccc2c(c1)c(Nc1ccc(F)c(C(F)F)c1)nn2C1CC1)N1CCC(O)CC1             47
5  Cc1cc(Nc2nn(CC(F)(F)F)c3ccc(S(=O)(=O)N4CCOCC4)cc23)ccc1F          > 417
6  O=S(=O)(c1ccc2c(c1)c(Nc1ccc(F)cc1Cl)nn2C1CC1)N1CCC(O)CC1           > 25
7  O=S(=O)(c1ccc2c(c1)c(Oc1ccc(F)c(Cl)c1)nn2C1CC1)N1CCC(O)CC1          < 7.5
8  O=S(=O)(c1ccc2c(c1)c(Nc1ccc(F)cc1)nn2C1CCC1)N1CCC(O)CC1            1.3
9  Cn1nc(Nc2ccc(F)c(Cl)c2)c2cc(S(=O)(=O)N3CCC(O)CC3)ccc21           > 72

Challenge: Could you share which selectivity ratio at 144 h value was measured for `Cc1cc(Nc2nn(CCF)c3ccc(S(=O)(=O)N4CCOCC4)cc23)ccc1F` ?
Response given: > 244

Challenge: Lookup `Cc1cc(F)ccc1Nc1nn(C2CC2)c2ccc(S(=O)(=O)N3CCC(O)CC3)cc12`
Response given: > 87

Challenge: Lookup `Cc1cc(Nc2nn(C3CC3)c3ccc(S(=O)(=O)N4CCC(O)CC4)cc23)ccn1`
Response given: < 23

Challenge: Lookup `CCn1nc(Nc2ccc(F)cc2)c2cc(S(=O)(=O)N3CCC(O)CC3)ccc21`
Response given: > 79

Challenge: Lookup `O=S(=O)(c1ccc2c(c1)c(Nc1ccc(F)c(F)c1)nn2C1CC1)N1CCC(O)CC1`
Response given: 625

Challenge: Lookup `O=S(=O)(c1ccc2c(c1)c(Nc1ccc(F)cc1)nn2C1CC1)N1CCC2(CC1)OCCO2`
Response given: > 400

Challenge: Lookup `O=S(=O)(c1cc2c(Nc3ccc(F)c(F)c3)nn(C3CC3)c2cn1)N1CCC(O)CC1`
Response given: > 400

Challenge: Lookup `Cc1cc(Nc2nn(CC(F)F)c3ccc(S(=O)(=O)N4CCOCC4)cc23)ccc1F`
Response given: > 435

Challenge: Lookup `Cc1cc(Nc2nn(C3CC3)c3ccc(S(=O)(=O)N4C[C@@H]5C[C@H]4CO5)cc23)ccc1F`
Response given: 422

###

Entries and their measured EC50 follow.
# Tested on: Hepatitis B virus
# METHOD SUMMARY: Antiviral activity against HBV infected in human HepAD38 cells assessed as reduction in viral DNA levels incubated for 6 days by PCR analysis
# Type: functional, organism-based
# CONDITION: HePAD38, 144 h

// solved cases for EC50 follow
>>> print(df.to_string())
                        structure_as_smiles  readout_value
0  O=S(=O)(c1ccc2c(c1)c(Nc1ccc(Cl)cc1)nn2C1CC1)N1CCC(O)CC1        3140 nM
1  O=S(=O)(c1cc2c(Nc3ccc(F)c(C(F)F)c3)nn(C3CC3)c2cn1)N1CCOCC1         230 nM
2  Cc1cc(Nc2nn(CCF)c3ccc(S(=O)(=O)N4CCOCC4)cc23)ccc1F         410 nM
3  Cc1cc(Nc2nn(C3CC3)c3cnc(S(=O)(=O)N4CCOCC4)cc23)ccc1F          42 nM
4  O=S(=O)(c1ccc2c(c1)c(Nc1ccc(F)c(C(F)F)c1)nn2C1CC1)N1CCOCC1         120 nM

Challenge: Could you share which EC50 value was measured for `O=S(=O)(c1cc2c(Nc3ccc(F)c(C(F)F)c3)nn(C3CC3)c2cn1)N1CCC(O)CC1` ?
Response given: 71 nM

Challenge: Lookup `O=S(=O)(c1ccc2c(c1)c(Nc1ccc(F)c(Cl)c1)nn2C1CC1)N1CCC(O)CC1`
Response given: 190 nM

Challenge: Lookup `O=S(=O)(c1ccc2c(c1)c(Nc1ccc(F)c(C(F)(F)F)c1)nn2C1CC1)N1CCC(O)CC1`
Response given: 6000 nM

Challenge: Lookup `O=S(=O)(c1ccc2c(c(Nc3cc(F)c(F)c(F)c3)nn2C2CC2)c1F)N1CCC(O)CC1`
Response given: > 20000 nM

###

# METHOD SUMMARY: AUC in C57BL/6 mouse plasma at 200 mg/kg, po measured from 5 mins to 24 hrs by HPLC analysis
# Assay type: ADME, organism-based
# Parameters: time 0.083-24 hr, dose 200 mg/kg, route oral
PROPERTY MEASURED: AUC (ng·h/mL)
Value expressed in ng·h/mL; do not type the unit.

Challenge: Could you share which AUC value was measured for `Cc1cc(Nc2nn(C3CC3)c3cnc(S(=O)(=O)N4CCC(OC(=O)CN(C)C)CC4)cc23)ccc1F.O=C(O)CC(O)(CC(=O)O)C(=O)O` ?
Response given: 21100

###

# METHOD SUMMARY: Cytotoxicity in human HepAD38 cells assessed as induction of cell killing
# Type: cell-based
Entries and their measured CC50 follow.
Value expressed in µM; do not type the unit.

// solved cases for CC50 follow
>>> print(df.to_string())
                                   compound  value_unit  readout_value
0  O=S(=O)(c1ccc2c(c1)c(Nc1ccc(F)c(C(F)(F)F)c1)nn2C1CC1)N1CCC(O)CC1          µM           7.52
1  O=S(=O)(c1ccc2c(c1)c(Nc1ccc(F)cc1)nn2C1CC1)N1CCCC(O)C1 (configuration not stated)          µM           19.1
2  O=S(=O)(c1ccc2c(c1)c(Nc1ccc(F)c(C(F)F)c1)nn2C1CC1)N1CCOCC1          µM             50

Challenge: Could you share which CC50 value was measured for `O=C1CCN(S(=O)(=O)c2ccc3c(c2)c(Nc2ccc(F)cc2)nn3C2CC2)CC1` ?
Response given: 14.2

Challenge: Lookup `O=S(=O)(c1ccc2c(c1)c(Oc1ccc(F)c(Cl)c1)nn2C1CC1)N1CCC(O)CC1`
Response given: 75

Challenge: Lookup `O=S(=O)(c1ccc2c(c1)c(Nc1ccc(F)c(C(F)(F)F)c1)nn2C1CC1)N1CCOCC1`
Response given: 8.42

Challenge: Lookup `O=S(=O)(c1ccc2c(c1)c(Nc1ccc(Cl)cc1)nn2C1CC1)N1CCC(O)CC1`
Response given: 6.9

###

# METHOD SUMMARY: Solubility in pH 7.4 phosphate buffer at 1 mg at 25 degC by HPLC analysis
# Type: physicochemical
Entries and their measured solubility follow.
Value expressed in µg/mL; do not type the unit.

Challenge: Could you share which solubility value was measured for `Cc1cc(Nc2nn(C3CC3)c3cnc(S(=O)(=O)N4CCC(OC(=O)CN(C)C)CC4)cc23)ccc1F.O=C(O)CC(O)(CC(=O)O)C(=O)O` ?
Response given: 31

Challenge: Lookup `CS(=O)(=O)O.CS(=O)(=O)O.Cc1cc(Nc2nn(C3CC3)c3cnc(S(=O)(=O)N4CCC(OC(=O)CN(C)C)CC4)cc23)ccc1F`
Response given: 230

Challenge: Lookup `Cc1cc(Nc2nn(C3CC3)c3cnc(S(=O)(=O)N4CCC(OC(=O)CN(C)C)CC4)cc23)ccc1F.Cl`
Response given: 16
